Hello, the source for this data is ChEMBL document CHEMBL1147939, in case you need it.

system: Mus musculus; experiment: Effect on thermal pain in Swiss mouse at 70 mg/kg, po after 1 hr by hot plate test relative to indomethacin; assay type: functional; parameters: unit not given here
experimentalReadout: Activity
The answer should be a number; do not append a unit.

# input Write Activity of N#C/C(=N\Nc1cc(-c2ccccc2)n[nH]1)C(=O)c1c[nH]c2ccccc12 ; system used: Mus musculus
# output 1.3

# input Enter Activity (test system Mus musculus) for CC(=O)C1=NN(c2ccccc2)/C(=C(\C#N)C(=O)c2c[nH]c3ccccc23)S1
# output 0.1

# input Consider the molecule CC(=O)C1=NN(c2ccc(C)cc2)/C(=C(\C#N)C(=O)c2c[nH]c3ccccc23)S1 tested on Mus musculus; state its Activity.
# output 0.9

# input Tell me Activity of N#C/C(C(=O)c1c[nH]c2ccccc12)=C1/SCC(=O)N1c1ccccc1 when tested on Mus musculus.
# output 3.4

# input Give measured Activity for CCOC(=O)C1=NN(c2ccc(C)cc2)/C(=C(\C#N)C(=O)c2c[nH]c3ccccc23)S1 (Mus musculus).
# output 0.5

More entries:
# input Give Mus musculus Activity for the following molecule: CCOC(=O)C1=NN(c2ccccc2)/C(=C(\C#N)C(=O)c2c[nH]c3ccccc23)S1
# output 0.4
